# procedure text: Plasma pharmacokinetics of Z-endoxifen (HPLC assay, non-compartmental analysis)
# Type: in vivo, human
# experimental conditions: human, plasma, po, 280 mg, DL7 280 mg oral, day 1, individual patients; read-out: Tmax
# Experimental: This was an open-label trial of Z-endoxifen in patients with advanced solid tumors (https://clinicaltrials.gov/ identifier: NCT01273168). […] Plasma and urine concentrations of Z- and E-endoxifen were measured using a validated, post-column fluorescence derivatization HPLC assay. Non-compartmental pharmacokinetic parameters were calculated using WinNonlin version 7.0 (Pharsight Corp., Mountainview, CA, USA). […] The amount of Z-endoxifen excreted in urine was measured over a 24-hour collection period.
measured metric: Tmax (h)
Field format: number, assumed h, no unit text.

What measured Tmax goes with CC/C(=C(\c1ccc(O)cc1)c1ccc(OCCNC)cc1)c1ccccc1 [Z-endoxifen] ? 3

====

# procedure text: Plasma pharmacokinetics of Z-endoxifen (HPLC assay, non-compartmental analysis)
# Format: in vivo, human
# experimental conditions: human, plasma, po, 100 mg, DL4 100 mg oral, day 1, individual patients; read-out: AUC(0-24h)
measured metric: AUC(0-t) (ng·h/mL)
Field format: number, assumed ng·h/mL, no unit text.

What measured AUC(0-t) goes with CC/C(=C(\c1ccc(O)cc1)c1ccc(OCCNC)cc1)c1ccccc1 [Z-endoxifen] ? 4640

====

# procedure text: Plasma pharmacokinetics of Z-endoxifen (HPLC assay, non-compartmental analysis)
# Assay type: in vivo, human
# experimental conditions: human, plasma, po, 140 mg/day, DL5 140 mg/day oral, day 28, individual patients; read-out: Tmax
measured metric: Tmax (h)
Field format: number, assumed h, no unit text.

What measured Tmax goes with CC/C(=C(\c1ccc(O)cc1)c1ccc(OCCNC)cc1)c1ccccc1 [Z-endoxifen] ? 1

====

# procedure text: Plasma pharmacokinetics of Z-endoxifen (HPLC assay, non-compartmental analysis)
# Type: in vivo, human
# experimental conditions: human, plasma, po, 280 mg, DL7 280 mg oral, day 1, individual patients; read-out: Cmax
# Description: This was an open-label trial of Z-endoxifen in patients with advanced solid tumors (https://clinicaltrials.gov/ identifier: NCT01273168). […] Plasma and urine concentrations of Z- and E-endoxifen were measured using a validated, post-column fluorescence derivatization HPLC assay. Non-compartmental pharmacokinetic parameters were calculated using WinNonlin version 7.0 (Pharsight Corp., Mountainview, CA, USA). […] The amount of Z-endoxifen excreted in urine was measured over a 24-hour collection period.
measured metric: Cmax
Output should be the measured figure followed by the unit it is expressed in.

What measured Cmax goes with CC/C(=C(\c1ccc(O)cc1)c1ccc(OCCNC)cc1)c1ccccc1 [Z-endoxifen] ? 888 ng/mL

====

# procedure text: Plasma pharmacokinetics of Z-endoxifen (HPLC assay, non-compartmental analysis)
# Type: in vivo, human
# experimental conditions: human, plasma, po, 140 mg, DL5 140 mg oral, day 1, mean; read-out: C24h, Mean
measured metric: concentration at 24 h (ng/mL)
Field format: number, assumed ng/mL, no unit text.

What measured concentration at 24 h goes with CC/C(=C(\c1ccc(O)cc1)c1ccc(OCCNC)cc1)c1ccccc1 [Z-endoxifen] ? 311

====

# procedure text: Plasma pharmacokinetics of Z-endoxifen (HPLC assay, non-compartmental analysis)
# Type: in vivo, human
# experimental conditions: human, plasma, oral, 360 mg, DL8; calculated from C24h in ng/mL; read-out: Plasma concentration 24 hours after the first dose
measured metric: concentration at 24 h (nM)
Field format: number, assumed nM, no unit text.

What measured concentration at 24 h goes with CC/C(=C(\c1ccc(O)cc1)c1ccc(OCCNC)cc1)c1ccccc1 [Z-endoxifen] ? 1810

Data origin, for the record: paper PMC7899551
